test system: 966289-007-R4-J1-PDC complex spheroid viability; assay: Anticancer human tumor 966289-007-R4-J1-PDC patient-derived pancreatic adenocarcinoma cell line growth inhibition [GQUAD]; settings: second compound 3.16 µM; first compound 0.1 µM; active means viability on the fitted dose curve at most 10% of control; inactive means the rest
Can you answer with just one of these options? active, inactive

O=c1[nH]cc(F)c(=O)[nH]1 + CN(C)c1ccc(Nc2c3ccc(NC(=O)CCN4CCCC4)cc3nc3cc(NC(=O)CCN4CCCC4)ccc23)cc1 | inactive
CC1COCCN1c1cc(C2(O)CC3CCC(C2)O3)c2cnn(-c3ccn[nH]3)c2n1 (stereo not drawn) + Cc1[nH]c2ccc(F)cc2c1-c1nc2c3cccnc3c3ncccc3c2[nH]1 | inactive

Turning to the following molecule.
Test call, this molecule: Nc1ccn(C2OC(CO)C(O)C2(F)F)c(=O)n1 (stereo not drawn) + Cc1cnc(CNC(=O)c2c(=O)c3ccc(N4CCCN(C)CC4)nc3n3c2sc2ccccc23)cn1
active

* * *

tested on: 966289-007-R4-J1-PDC complex spheroid viability; assay: Anticancer human tumor 966289-007-R4-J1-PDC cell line growth inhibition [GQUAD]; conditions: second compound 0.0316 µM; first compound 0.0316 µM; stronger effect = lower value;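 further: spheroids exposed to the agents for seven days before readout; percent viability relative to DMSO vehicle control wells taken as 100%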
measured-endpoint: viability, T/C (%)
Reply with just the number (in %).

Example entries begin here.
COc1ncnc(C2CC2)c1-c1ncc2cnn(Cc3ccc(-c4nc(C(F)(F)F)cn4C(C)C)cc3)c2n1 + Cc1cnc(CNC(=O)c2c(=O)c3ccc(N4CCCN(C)CC4)nc3n3c2sc2ccccc23)cn1 | 105
Cc1cccc(N(C)C(=O)C2C(O)CCN2c2nc(C)cc(C(F)(F)F)c2C#N)c1 (stereo unspecified) + Cc1[nH]c2ccc(F)cc2c1-c1nc2c3cccnc3c3ncccc3c2[nH]1 | 109
Nc1ccn(C2OC(CO)C(O)C2(F)F)c(=O)n1 (stereo unspecified) + Cc1[nH]c2ccc(F)cc2c1-c1nc2c3cccnc3c3ncccc3c2[nH]1 | 7.33

Returns the measured viability, T/C for the input compound. Input: CCCS(=O)(=O)Nc1ccc(F)c(C(=O)c2c[nH]c3ncc(-c4ccc(Cl)cc4)cc23)c1F + CN(C)c1ccc(Nc2c3ccc(NC(=O)CCN4CCCC4)cc3nc3cc(NC(=O)CCN4CCCC4)ccc23)cc1
99.4

Record request: viability, T/C value, item Cn1ncnc1[C@H]1c2n[nH]c(=O)c3cc(F)cc(c23)N[C@@H]1c1ccc(F)cc1 + CN(C)c1ccc(Nc2c3ccc(NC(=O)CCN4CCCC4)cc3nc3cc(NC(=O)CCN4CCCC4)ccc23)cc1
104

Can you share its viability, T/C? I mean this compound: CC1COCCN1c1cc(-c2ccnn2C)c2ccnc(-c3ccn[nH]3)c2n1 (stereo unspecified) + Cc1[nH]c2ccc(F)cc2c1-c1nc2c3cccnc3c3ncccc3c2[nH]1
114

* * *

tested on: 966289-007-R4-J1-PDC complex spheroid viability; test: Anticancer human tumor 966289-007-R4-J1-PDC cell line growth inhibition [GQUAD]; settings: second compound 10 µM; first compound 0.1 µM; stronger effect = lower value;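 further: spheroids exposed to the agents for seven days before readout; percent viability relative to DMSO vehicle control wells taken as 100%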
measured-endpoint: viability, T/C (%)
Value expressed in %; do not type the unit.

Cc1cccc(N(C)C(=O)C2C(O)CCN2c2nc(C)cc(C(F)(F)F)c2C#N)c1 (stereo not given) + CN(C)c1ccc(Nc2c3ccc(NC(=O)CCN4CCCC4)cc3nc3cc(NC(=O)CCN4CCCC4)ccc23)cc1 | 103
C=CCn1c(=O)c2cnc(Nc3ccc(N4CCN(C)CC4)cc3)nc2n1-c1cccc(C(C)(C)O)n1 + CN(C)c1ccc(Nc2c3ccc(NC(=O)CCN4CCCC4)cc3nc3cc(NC(=O)CCN4CCCC4)ccc23)cc1 | 102
CC(C)n1c(=O)n(C)c2cnc3cc(F)c(-c4ccc(OCCCN5CCCCC5)nc4)cc3c21 + CN(C)c1ccc(Nc2c3ccc(NC(=O)CCN4CCCC4)cc3nc3cc(NC(=O)CCN4CCCC4)ccc23)cc1 | 79
COc1ccc([C@@H](O)c2cc(-c3ncnc4cc(N5CCOCC5)ccc34)c(F)cc2Cl)nn1 + CN(C)c1ccc(Nc2c3ccc(NC(=O)CCN4CCCC4)cc3nc3cc(NC(=O)CCN4CCCC4)ccc23)cc1 | 97.3

Now examine the next entry.
Which viability, T/C value is on record for CC1COCCN1c1cc(-c2ccnn2C)c2ccnc(-c3ccn[nH]3)c2n1 (stereo not given) + CN(C)c1ccc(Nc2c3ccc(NC(=O)CCN4CCCC4)cc3nc3cc(NC(=O)CCN4CCCC4)ccc23)cc1 ?
64.3

The measurements presented in this section are drawn from PubChem BioAssay AID2060488.
